These measurements were taken from a collection of fitness landscapes (doi:10.1016/j.celrep.2020.107928).

B1: Caulobacter ParB omega fusion; a variant is named by its letters at X, in order, B8GW30 (parent)
chain: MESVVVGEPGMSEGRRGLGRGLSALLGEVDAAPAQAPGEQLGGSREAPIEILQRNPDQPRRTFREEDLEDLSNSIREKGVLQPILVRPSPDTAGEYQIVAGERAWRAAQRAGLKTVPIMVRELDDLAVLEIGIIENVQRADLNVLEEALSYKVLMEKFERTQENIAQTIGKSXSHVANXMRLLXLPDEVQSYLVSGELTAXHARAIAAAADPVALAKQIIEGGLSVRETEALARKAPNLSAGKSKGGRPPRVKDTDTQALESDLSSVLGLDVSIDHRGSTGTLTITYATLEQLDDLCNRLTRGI

variants of: B1; assay: one-hybrid fitness for binding parS DNA (scaled: cognate 1, non-cognate 0); higher = stronger binding; settings: with parS DNA site
Over roughly 81,000 sequences, “one-hybrid fitness for binding parS DNA” has its median near -0.17; the highest 2% begin near 0.51. What follows is part of a selection rich in the highest values, with near analogues and random picks from the rest.
one-hybrid fitness for binding parS DNA overview

>  <mutation_key>
RINY

>  <one-hybrid fitness for binding parS DNA>
0.513

$$$$
>  <mutation_key>
RKEA

>  <one-hybrid fitness for binding parS DNA>
0.515

$$$$
>  <mutation_key>
YPVG

>  <one-hybrid fitness for binding parS DNA>
≤ 0.2

$$$$
